assay: Mouse pharmacokinetics study and brain/plasma ratio; assay type: in vivo, Male Crl:CD-1 (ICR) mice; conditions: male, Crl:CD-1 (ICR), mouse, plasma, iv, 5 mg/kg, plasma, mice, intravenous bolus 5 mg/kg; read-out: Systemic exposure (AUC0-∞)
Attribute measured: AUC(0-inf) (ng·h/mL)
Please give a number only; it is taken to be in ng·h/mL.

Exercise: So what's the measured AUC(0-inf) for this one? `CN(C)c1ccc(/C=C/C(=O)c2c(O)c3ccccc3oc2=O)cc1`
Key: 45300

----------
experiment: Mouse pharmacokinetics study and brain/plasma ratio; type: in vivo, Male Crl:CD-1 (ICR) mice; settings: male, Crl:CD-1 (ICR), mouse, brain, iv, 5 mg/kg, brain, mice, intravenous bolus 5 mg/kg; read-out: Systemic exposure (AUC0-∞)
Attribute measured: AUC(0-inf) (µg·h/mL)
Please give a number only; it is taken to be in µg·h/mL.

Exercise: So what's the measured AUC(0-inf) for this one? `CN(C)c1ccc(/C=C/C(=O)c2c(O)c3ccccc3oc2=O)cc1`
Key: 2.38

----------
assay: Mouse pharmacokinetics study and brain/plasma ratio; format: in vivo, Male Crl:CD-1 (ICR) mice; conditions: Crl:CD-1 (ICR), mouse; plasma, ICR male mice, IV 5 mg/kg; read-out: Vss
Attribute measured: Vd

Exercise: So what's the measured Vd for this one? `CN(C)c1ccc(/C=C/C(=O)c2c(O)c3ccccc3oc2=O)cc1`
Key: 0.39 L/kg

----------
test: Mouse pharmacokinetics study and brain/plasma ratio; format: in vivo, Male Crl:CD-1 (ICR) mice; settings: Crl:CD-1 (ICR), mouse; plasma, ICR male mice, IV 5 mg/kg
Attribute measured: MRT (h)
Please give a number only; it is taken to be in h.

Exercise: So what's the measured MRT for this one? CN(C)c1ccc(/C=C/C(=O)c2c(O)c3ccccc3oc2=O)cc1 [LM-021]
Key: 3.54

----------
Biological target: ΔK280 tauRD protein (Homo sapiens, UniProt P10636, DEL597-597)
Construct: E. coli-derived ΔK280 tauRD protein; made in house; host or cells: E. coli
Sequence (P10636 with tags, fused parts or gaps DEL597-597): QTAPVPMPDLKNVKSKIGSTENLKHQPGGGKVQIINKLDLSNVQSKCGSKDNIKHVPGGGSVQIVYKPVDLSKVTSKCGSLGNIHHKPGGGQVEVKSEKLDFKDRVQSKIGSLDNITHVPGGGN
Assay: Thioflavin T assay of ΔK280 tauRD aggregation
Format: biochemical
Method: The potential of Congo red and coumarin-chalcone derivatives in inhibiting tau misfolding was assessed using the E. coli-derived ΔK280 tauRD protein [21]. In brief, ΔK280 tauRD protein (20 μM) was incubated with the tested compound (1−10 μM) in buffer (150 mM NaCl, 20 mM Tris-HCl (pH 8.0)) at 37°C for 48 h to form aggregates. […] The fluorescence intensity of the samples was measured, and the EC50 was computed as described.
Attribute measured: EC50
# output: numeric value plus its unit

Exercise: Which measured EC50 belongs to Nc1c(/N=N/c2ccc(-c3ccc(/N=N/c4cc(S(=O)(=O)O)c5ccccc5c4N)cc3)cc2)cc(S(=O)(=O)O)c2ccccc12 [Congo red, reference compound] , tested on ΔK280 tauRD protein (Homo sapiens, UniProt P10636, DEL597-597)?
Key: 10 µM

----------
assay: Mouse pharmacokinetics study and brain/plasma ratio; assay type: in vivo, Male Crl:CD-1 (ICR) mice; settings: Crl:CD-1 (ICR), mouse; plasma, ICR male mice, IV 5 mg/kg
Attribute measured: C0 (ng/mL)
Please give a number only; it is taken to be in ng/mL.

Exercise: So what's the measured C0 for this one? CN(C)c1ccc(/C=C/C(=O)c2c(O)c3ccccc3oc2=O)cc1 [LM-021]
Key: 20400

----------
Assay: physchem
Format: physicochemical
Conditions: aqueous buffer; cell culture medium; read-out: Concentration up to which the compound stayed soluble
Procedure: The coumarin-chalcone derivatives (E)-4-hydroxy-3-(3-(p-tolyl)acryloyl)-2H-chromen-2-one (LM-016), (E)-3-(3-(4-(dimethylamino)phenyl)acryloyl)-4-hydroxy-2H-chromen-2-one (LM-021), and (E)-3-(3-(furan-2-yl)acryloyl)-4-hydroxy-2H-chromen-2-one (LM-022) were synthesized in our laboratory as previously described and examined by using NMR spectroscopy. The LM-016, LM-021, and LM-022 stayed soluble in cell culture medium at concentrations up to 100 μM.
Attribute measured: solubility

Exercise: So what's the measured solubility for this one? `Cc1ccc(/C=C/C(=O)c2c(O)c3ccccc3oc2=O)cc1`
Key: ≥ 100 µM

----------
system: Aβ-GFP SH-SY5Y cells; assay: High content analysis of Aβ-GFP fluorescence; assay type: cell-based, Human; details: tested 1.2–5 μM, day 8
Attribute measured: Concentration significantly augmenting green fluorescence intensity (Aβ-GFP)

Exercise: So what's the measured Concentration significantly augmenting green fluorescence intensity (Aβ-GFP) for this one? O=C(/C=C/c1ccco1)c1c(O)c2ccccc2oc1=O [LM-022]
Key: 2.5 to 5 µM

Exercise: Please answer likewise for COc1cc(/C=C/C(=O)CC(=O)/C=C/c2ccc(O)c(OC)c2)ccc1O [Curcumin, reference compound]
Key: 2.5 to 5 µM

Exercise: Please answer likewise for Cc1ccc(/C=C/C(=O)c2c(O)c3ccccc3oc2=O)cc1 [LM-016]
Key: 2.5 to 5 µM

Exercise: Please answer likewise for CN(C)c1ccc(/C=C/C(=O)c2c(O)c3ccccc3oc2=O)cc1 [LM-021]
Key: 1.2 to 5 µM

----------
experiment: Mouse pharmacokinetics study and brain/plasma ratio; assay type: in vivo, Male Crl:CD-1 (ICR) mice; conditions: Crl:CD-1 (ICR), mouse; plasma, ICR male mice, IV 5 mg/kg
Attribute measured: clearance (mL/min/kg)
Please give a number only; it is taken to be in mL/min/kg.

Exercise: So what's the measured clearance for this one? `CN(C)c1ccc(/C=C/C(=O)c2c(O)c3ccccc3oc2=O)cc1`
Key: 1.85

----------
Exercise: for every item that follows, state its recorded pEC50.
biological target: Aβ42 peptide (Homo sapiens, UniProt P05067); construct: containing Aβ42 peptide (5 μM); assay: Thioflavin T assay of Aβ aggregation; settings: Aβ42 5 μM, compound 5–20 μM, 37°C 48 h; read-out: Aβ aggregation inhibition EC50 (Thioflavin T)
Sequence (P05067 672-713 limits assumed): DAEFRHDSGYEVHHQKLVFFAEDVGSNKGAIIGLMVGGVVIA
Convention used: pEC50 is expressed as -log10 of the molar concentration.

Exercise: So what's the measured pEC50 for this one? `O=C(/C=C/c1ccco1)c1c(O)c2ccccc2oc1=O`
Key: 4.74

Exercise: Please answer likewise for `Cc1ccc(/C=C/C(=O)c2c(O)c3ccccc3oc2=O)cc1`
Key: 4.82

Exercise: Please answer likewise for `CN(C)c1ccc(/C=C/C(=O)c2c(O)c3ccccc3oc2=O)cc1`
Key: 4.85

----------
Assay: Mouse pharmacokinetics study and brain/plasma ratio
Assay type: in vivo, Male Crl:CD-1 (ICR) mice
Settings: male, Crl:CD-1 (ICR), mouse, brain and plasma; mice, IV 5 mg/kg
Description: Male Crl:CD-1 (ICR) mice (8 weeks old) weighing 25–30 g were housed in cages with ad libitum access to food and drinking water on a 12 : 12 h light-dark cycle. […] After vortexing and centrifugation (20,000 × g for 5 min), the extracted supernatants were collected. […] The transition (precursor ion to daughter ion) monitored was m/z 336.2 → 321.0 for LM-021. […]
Attribute measured: Kp
// no unit, no text: just the number

Exercise: So what's the measured Kp for this one? CN(C)c1ccc(/C=C/C(=O)c2c(O)c3ccccc3oc2=O)cc1 [LM-021]
Key: 0.053

----------
assay: Mouse pharmacokinetics study and brain/plasma ratio; assay type: in vivo, Male Crl:CD-1 (ICR) mice; conditions: Crl:CD-1 (ICR), mouse; plasma, ICR male mice, IV 5 mg/kg; read-out: t1/2 (elimination half-life) (converted)
Attribute measured: half-life (h)
Please give a number only; it is taken to be in h.

Exercise: So what's the measured half-life for this one? `CN(C)c1ccc(/C=C/C(=O)c2c(O)c3ccccc3oc2=O)cc1`
Key: 2.54

----------
Test: Mouse pharmacokinetics study and brain/plasma ratio
Type: in vivo, Male Crl:CD-1 (ICR) mice
Settings: male, Crl:CD-1 (ICR), mouse, brain, iv, 5 mg/kg, brain (tissue density assumed 1 g/ml), ICR male mice, IV 5 mg/kg; read-out: AUC(0-∞)
Protocol: Male Crl:CD-1 (ICR) mice (8 weeks old) weighing 25–30 g were housed in cages with ad libitum access to food and drinking water on a 12 : 12 h light-dark cycle. […] After vortexing and centrifugation (20,000 × g for 5 min), the extracted supernatants were collected. […] The transition (precursor ion to daughter ion) monitored was m/z 336.2 → 321.0 for LM-021. […]
Attribute measured: AUC(0-inf)
# output: numeric value plus its unit

Exercise: So what's the measured AUC(0-inf) for this one? `CN(C)c1ccc(/C=C/C(=O)c2c(O)c3ccccc3oc2=O)cc1`
Key: 2380 ng·h/mL
